Read-out: X-box binding protein 1 (XBP1), XBP1 (gene 7494)
Assay: LTEA_HepaRG_XBP1: Life Technologies and Expression Analysis (LTEA) Assay for X-box binding protein 1 (XBP1) using HepaRG (AID 2283540)
Settings: mRNA level, 48 h; actives raise or lower the signal
Protocol: LTEA_HepaRG is a cell based, multiplexed-readout assay that uses HepaRG, a human liver cell line, with measurements taken at 48 hours after chemical dosing on a 96-well plate.LTEA_HepaRG_XBP1 is one of 102 assay component(s) measured in the LTEA HepaRG cell culture assay. It is a marker of Diseases associated with XBP1 including Major Affective Disorder 7 and Bipolar Disorder.Data from the assay component LTEA_HepaRG_XBP1 was analyzed into 1 endpoint. […]
Active and inactive are the calls of the source. The calls were made as follows: active = hit-call score of the fitted dose curve at least 0.9, where 1 is the maximum; inactive = score below 0.9.
The categories you may choose from are 1 (yes) = active, 0 (no) = inactive

| COMPOUND | LABEL |
| --- | --- |
| CCCCNC(=O)n1c(NC(=O)OC)nc2ccccc21 | 0 (no) |

Can you look up the reported call for O=C(Nc1ccccc1)Nc1ccnc(Cl)c1 for me?
1 (yes)

Can you look up the reported call for CCNc1nc(Cl)nc(NCC)n1 for me?
0 (no)

Can you look up the reported call for COP(=S)(OC)Oc1nc(Cl)c(Cl)cc1Cl for me?
0 (no)

Can you look up the reported call for Cc1cc(Cl)ccc1OCC(=O)O for me?
0 (no)

Can you look up the reported call for CCOP(=S)(OCC)SCn1c(=O)oc2cc(Cl)ccc21 for me?
0 (no)

Can you look up the reported call for C=CC1(C)OC(=O)N(c2cc(Cl)cc(Cl)c2)C1=O (configuration not stated) for me?
0 (no)

Can you look up the reported call for CNC(=S)S for me?
0 (no)

Can you look up the reported call for N#Cc1nn(-c2c(Cl)cc(C(F)(F)F)cc2Cl)c(N)c1S(=O)C(F)(F)F (configuration not stated) for me?
1 (yes)

Can you look up the reported call for N#Cc1cc(Br)c(O)c(Br)c1 for me?
1 (yes)

---

Read-out: Human Leukocyte Antigen - DR isotype (HLADR), HLA-DRA (gene 3122)
Assay: BSK_BE3C_HLADR: BioMAP Diversity Plus: BE3C Assay for Human Leukocyte Antigen - DR isotype (HLADR) Biomarker Activity (AID 2283032)
Conditions: primary human bronchial epithelial cells; actives raise or lower the signal
Activity calls are given as the source filed them. Rule for the calls: active = hit-call score of the fitted dose curve at least 0.9, where 1 is the maximum; inactive = score below 0.9.
The categories you may choose from are active, inactive

Answered cases to consult:
| COMPOUND | LABEL |
| --- | --- |
| N#Cc1nn(-c2c(Cl)cc(C(F)(F)F)cc2Cl)c(N)c1S(=O)C(F)(F)F (stereo unspecified) | active |
| CON(C)C(=O)Nc1ccc(Cl)c(Cl)c1 | inactive |
| CCCC1COC(Cn2cncn2)(c2ccc(Cl)cc2Cl)O1 (stereo unspecified) | inactive |
| N#Cc1cc(Br)c(O)c(Br)c1 | active |
| COc1nc(C)nc(NC(=O)NS(=O)(=O)c2ccccc2Cl)n1 | inactive |

Can you look up the reported call for CCOc1cc(Oc2ccc(C(F)(F)F)cc2Cl)ccc1[N+](=O)[O-] for me?
active

Can you look up the reported call for CCCCC(CC)COC(=O)c1ccccc1C(=O)OCC(CC)CCCC (stereo unspecified) for me?
inactive

Can you look up the reported call for Cc1ccc(-c2c(Cl)nc(C#N)n2S(=O)(=O)N(C)C)cc1 for me?
active

Can you look up the reported call for CCOC(=O)CC(SP(=S)(OC)OC)C(=O)OCC (stereo unspecified) for me?
inactive

Can you look up the reported call for CCON=C(CC)C1=C(O)CC(c2c(C)cc(C)cc2C)CC1=O (stereo unspecified) for me?
inactive

Can you look up the reported call for CCOC(=O)C(Cl)Cc1cc(-n2nc(C)n(C(F)F)c2=O)c(F)cc1Cl (stereo unspecified) for me?
inactive
